Data provenance: patent US8309597B2

Measured 11β-HSD 1 inhibitory activity (% CTL at 1 μM), listed per entry.
Target: 11β-hydroxysteroid dehydrogenase (HSD) 1 (Homo sapiens)
Construct: detecting cortisol generated from cortisterone by human liver microsomes; from tissue; host or cells: human liver microsomes
Sequence (P28845 whole entry): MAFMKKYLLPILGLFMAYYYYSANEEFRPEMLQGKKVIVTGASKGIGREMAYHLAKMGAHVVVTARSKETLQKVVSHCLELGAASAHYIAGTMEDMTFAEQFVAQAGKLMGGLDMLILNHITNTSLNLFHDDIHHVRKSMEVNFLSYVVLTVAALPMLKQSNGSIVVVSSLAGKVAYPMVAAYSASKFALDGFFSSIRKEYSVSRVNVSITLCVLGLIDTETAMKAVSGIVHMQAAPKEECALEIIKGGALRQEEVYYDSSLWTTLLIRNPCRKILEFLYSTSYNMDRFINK
Assay: In vitro inhibition of 11β-HSD1, HTRF detection of cortisol generated from cortisone by human liver microsomes
Assay type: biochemical
Conditions: compound concentration 1 μM, 100% indicates no inhibition, zero or below zero indicates complete inhibition
API: value field is a number in % CTL; no unit string.

Some molecules with recorded 11β-HSD 1 inhibitory activity (% CTL at 1 μM):
N#CNC(=O)C12CC3CC(C1)CC(C14CC5CC(CC(C(=O)O)(C5)C1)C4)(C3)C2 = 19
COCC1CCCN1C(=O)C12CC3CC(C1)CC(C14CC5CC(CC(C(=O)O)(C5)C1)C4)(C3)C2 (stereo not drawn) = −15
COc1ccc(CCCN(C)C(=O)C23CC4CC(C2)CC(C25CC6CC(CC(C(=O)O)(C6)C2)C5)(C4)C3)cc1 = −18

INPUT: Please look up its 11β-HSD 1 inhibitory activity (% CTL at 1 μM): "CN(C(=O)C12CC3CC(C1)CC(C14CC5CC(CC(C(=O)O)(C5)C1)C4)(C3)C2)c1ccc(-c2ccccc2)cc1"
OUTPUT: 36

INPUT: Please look up its 11β-HSD 1 inhibitory activity (% CTL at 1 μM): "O=C(O)C12CC3CC(C1)CC(C14CC5CC(CC(C(=O)N6CCC6)(C5)C1)C4)(C3)C2"
OUTPUT: 7

INPUT: Please look up its 11β-HSD 1 inhibitory activity (% CTL at 1 μM): "O=C(O)C12CC3CC(C1)CC(C14CC5CC(CC(c6nnc(-c7ccccc7)o6)(C5)C1)C4)(C3)C2"
OUTPUT: 44

INPUT: Please look up its 11β-HSD 1 inhibitory activity (% CTL at 1 μM): CN(C(=O)C12CC3CC(C1)CC(C14CC5CC(CC(C(=O)O)(C5)C1)C4)(C3)C2)C1CCC(c2ccccc2)CC1 (stereo not drawn)
OUTPUT: 13

INPUT: Please look up its 11β-HSD 1 inhibitory activity (% CTL at 1 μM): "O=C(O)C12CC3CC(C1)CC(C14CC5CC(CC(C(=O)N6CCc7cc(Br)ccc7C6)(C5)C1)C4)(C3)C2"
OUTPUT: 24

INPUT: Please look up its 11β-HSD 1 inhibitory activity (% CTL at 1 μM): "O=C(O)C12CC3CC(C1)CC(C14CC5CC(CC(c6ncc7ccccc7n6)(C5)C1)C4)(C3)C2"
OUTPUT: −9
